test system: Zymoseptoria tritici field and genetically modified strains; test: Liquid culture assay for fungicide sensitivity determination; assay type: cell-based; settings: strain 09STF037; liquid culture sensitivity; read-out: EC50 (nM) Mean
// reported EC50 for each item listed
quantityKind: EC50 (nM)

> print(dat)
                                   compound                              targetsystem  unitsofmeasure  obsvalue
1  CC(C)C1C2CCC1c1c(NC(=O)c3cn(C)nc3C(F)F)cccc12 (stereo not shown) [Isopyrazam]  Zymoseptoria tritici field and genetically modified strains              nM      46.1
2  Cn1cc(C(=O)Nc2cccc3c2[C@@H]2CC[C@H]3C2=C(Cl)Cl)c(C(F)F)n1 (racemic) [Benzovindiflupyr]  Zymoseptoria tritici field and genetically modified strains              nM        54
3  Cn1cc(C(=O)Nc2ccc(F)cc2-c2ccc(Cl)c(Cl)c2)c(C(F)F)n1 [Bixafen]  Zymoseptoria tritici field and genetically modified strains              nM       111
4  Cn1cc(C(=O)Nc2ccccc2-c2cc(F)c(F)c(F)c2)c(C(F)F)n1 [Fluxapyroxad]  Zymoseptoria tritici field and genetically modified strains              nM       110

----------
Below, each of the compounds is paired with its reported log10 IC50 value.
molecular target: SQR (SDHC) of D024 SDHC3 KO mitochondria (Zymoseptoria tritici, UniProt F9X9V6+F9XH52+O42772); assay: Succinate-quinone (SQR) SDHI sensitivity assay on purified mitochondria, 06STD024 SDHC3 KO; settings: mitochondria of 06STD024 ZtSDHC3 deletion mutant; mean of three ± SD
Sequence (F9XH52 44-187): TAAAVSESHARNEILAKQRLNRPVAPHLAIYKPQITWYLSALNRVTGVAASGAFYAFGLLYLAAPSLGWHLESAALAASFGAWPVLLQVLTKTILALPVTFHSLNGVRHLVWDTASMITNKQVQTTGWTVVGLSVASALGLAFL
Sequence (O42772 19-297): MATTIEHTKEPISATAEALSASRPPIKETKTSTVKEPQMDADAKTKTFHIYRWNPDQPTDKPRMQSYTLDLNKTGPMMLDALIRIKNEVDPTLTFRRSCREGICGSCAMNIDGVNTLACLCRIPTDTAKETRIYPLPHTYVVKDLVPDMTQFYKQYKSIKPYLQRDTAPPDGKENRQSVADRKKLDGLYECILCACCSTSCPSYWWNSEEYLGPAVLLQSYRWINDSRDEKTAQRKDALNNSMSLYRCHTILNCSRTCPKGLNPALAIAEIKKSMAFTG
Sequence (F9X9V6 1-193): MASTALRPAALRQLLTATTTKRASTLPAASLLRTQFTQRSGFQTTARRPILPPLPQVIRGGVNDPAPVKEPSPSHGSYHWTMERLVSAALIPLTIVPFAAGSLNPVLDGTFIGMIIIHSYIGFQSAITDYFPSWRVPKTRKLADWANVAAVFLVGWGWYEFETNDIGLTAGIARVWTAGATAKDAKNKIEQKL
Sequence (F9WWR1 29-643 partner): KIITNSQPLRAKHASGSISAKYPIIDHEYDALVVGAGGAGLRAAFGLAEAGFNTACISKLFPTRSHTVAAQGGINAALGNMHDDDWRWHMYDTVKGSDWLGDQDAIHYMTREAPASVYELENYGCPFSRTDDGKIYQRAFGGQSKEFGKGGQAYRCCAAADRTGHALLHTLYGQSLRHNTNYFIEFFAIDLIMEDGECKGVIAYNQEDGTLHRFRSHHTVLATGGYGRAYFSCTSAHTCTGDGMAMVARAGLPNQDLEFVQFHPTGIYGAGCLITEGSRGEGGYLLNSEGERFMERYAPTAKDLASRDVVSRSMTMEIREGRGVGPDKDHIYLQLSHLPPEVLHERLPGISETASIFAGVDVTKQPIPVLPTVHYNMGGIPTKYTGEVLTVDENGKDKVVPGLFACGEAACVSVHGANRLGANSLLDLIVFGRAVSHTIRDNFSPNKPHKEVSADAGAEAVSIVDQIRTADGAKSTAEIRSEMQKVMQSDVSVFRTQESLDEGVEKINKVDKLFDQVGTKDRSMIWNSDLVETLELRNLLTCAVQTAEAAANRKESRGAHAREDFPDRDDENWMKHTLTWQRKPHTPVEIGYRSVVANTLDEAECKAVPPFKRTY
quantityKind: log10 IC50 (log10 of the value in nM)

> print(dat)
                                   compound  obsvalue
1  O=C(Nc1ccccc1-c1ccc(Cl)cc1)c1cccnc1Cl [Boscalid]      1.21
2  CC(C)CC(C)c1sccc1NC(=O)c1cn(C)nc1C(F)(F)F (stereo not drawn) [Penthiopyrad]      0.18
3  Cn1cc(C(=O)Nc2cccc3c2[C@@H]2CC[C@H]3C2=C(Cl)Cl)c(C(F)F)n1 (racemic) [Benzovindiflupyr]     -0.22
4  CC(C)C1C2CCC1c1c(NC(=O)c3cn(C)nc3C(F)F)cccc12 (stereo not drawn) [Isopyrazam]     -0.22
5  CON(C(=O)c1cn(C)nc1C(F)F)[C@@H](C)Cc1ccc(Cl)cc1Cl [Compound 3]     -0.10
6  Cn1cc(C(=O)Nc2ccc(F)cc2-c2ccc(Cl)c(Cl)c2)c(C(F)F)n1 [Bixafen]      0.11
7  C[C@@H](Cc1ccc(Cl)cc1Cl)NC(=O)c1cn(C)nc1C(F)F [Compound 2]      0.57
8  O=C(NCCc1ncc(C(F)(F)F)cc1Cl)c1ccccc1C(F)(F)F [Fluopyram]      1.00
9     CC1=C(C(=O)Nc2ccccc2)SCCO1 [Carboxin]      2.89

----------
# key: entry, value: RF (resistance factor), D024 SDHC1 KO (altC)
target: altC-SQR (altC) of D024 SDHC1 KO mitochondria (Zymoseptoria tritici, UniProt A0A1X7RQW2+F9X9V6+O42772); test: Succinate-quinone (SQR) SDHI sensitivity assay on purified mitochondria, 06STD024 SDHC1 KO; assay type: biochemical; settings: IC50 ratio compared to IPO323 values
Sequence (A0A1X7RQW2 36-181): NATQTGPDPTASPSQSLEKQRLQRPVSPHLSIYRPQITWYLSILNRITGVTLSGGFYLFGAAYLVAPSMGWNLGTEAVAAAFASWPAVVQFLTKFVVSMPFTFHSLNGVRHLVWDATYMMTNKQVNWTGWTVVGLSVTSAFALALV
Sequence (O42772 20-297): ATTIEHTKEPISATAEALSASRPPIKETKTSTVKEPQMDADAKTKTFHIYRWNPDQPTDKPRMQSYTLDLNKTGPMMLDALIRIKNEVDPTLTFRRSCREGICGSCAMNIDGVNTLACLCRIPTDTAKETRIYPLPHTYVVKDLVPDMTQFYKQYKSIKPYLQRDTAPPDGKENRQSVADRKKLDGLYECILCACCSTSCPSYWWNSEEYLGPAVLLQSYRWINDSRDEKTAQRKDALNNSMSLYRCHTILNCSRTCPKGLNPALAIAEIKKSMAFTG
Sequence (F9X9V6 1-193): as the sequence (F9X9V6 1-193) above
Sequence (F9WWR1 41-643 partner): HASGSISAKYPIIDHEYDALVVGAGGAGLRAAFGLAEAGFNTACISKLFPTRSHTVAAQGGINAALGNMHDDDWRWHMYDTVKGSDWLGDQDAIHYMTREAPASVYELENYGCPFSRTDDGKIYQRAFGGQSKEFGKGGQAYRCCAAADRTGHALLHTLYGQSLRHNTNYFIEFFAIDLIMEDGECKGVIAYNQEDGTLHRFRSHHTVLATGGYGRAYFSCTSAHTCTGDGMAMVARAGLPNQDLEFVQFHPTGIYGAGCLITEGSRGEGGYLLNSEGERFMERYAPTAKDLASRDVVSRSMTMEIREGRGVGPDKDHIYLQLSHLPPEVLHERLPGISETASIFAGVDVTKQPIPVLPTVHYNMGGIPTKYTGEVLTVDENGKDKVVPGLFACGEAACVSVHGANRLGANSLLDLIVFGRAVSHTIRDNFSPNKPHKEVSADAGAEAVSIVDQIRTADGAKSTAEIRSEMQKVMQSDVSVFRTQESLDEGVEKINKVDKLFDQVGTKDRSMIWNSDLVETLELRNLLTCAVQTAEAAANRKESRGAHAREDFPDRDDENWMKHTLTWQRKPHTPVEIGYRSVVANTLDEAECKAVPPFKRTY
quantityKind: RF (resistance factor), D024 SDHC1 KO (altC)

> print(dat)
                                   compound  obsvalue
1  CON(C(=O)c1cn(C)nc1C(F)F)[C@@H](C)Cc1c(Cl)cc(Cl)cc1Cl [Pydiflumetofen]       4.9
2     CC1=C(C(=O)Nc2ccccc2)SCCO1 [Carboxin]       0.9
3  O=C(Nc1ccccc1-c1ccc(Cl)cc1)c1cccnc1Cl [Boscalid]       3.2
4  O=C(NCCc1ncc(C(F)(F)F)cc1Cl)c1ccccc1C(F)(F)F [Fluopyram]      93.4
